Measured Ratio Ki by item
Species: Homo sapiens
Experiment: Selectivity ratio of Ki for human adenosine A1 receptor to Ki for human adenosine A2A receptor
endpointLabel: Ratio Ki

>  <testSmiles>
S=c1sc2c(ncn3nc(-c4ccco4)nc23)n1-c1ccccc1

>  <testValue>
46.6

$$$$
>  <testSmiles>
S=c1sc2c(ncn3nc(-c4ccco4)nc23)n1-c1cccc(I)c1

>  <testValue>
320

$$$$
>  <testSmiles>
S=c1sc2c(ncn3nc(-c4ccco4)nc23)n1-c1cccc(Cl)c1

>  <testValue>
5

$$$$
>  <testSmiles>
S=c1sc2c(ncn3nc(-c4ccco4)nc23)n1-c1ccc(I)cc1

>  <testValue>
10.8

$$$$
>  <testSmiles>
CCn1c(=S)sc2c1ncn1nc(-c3ccco3)nc21

>  <testValue>
0.028

$$$$
>  <testSmiles>
Fc1ccc(-n2c(=S)sc3c2ncn2nc(-c4ccco4)nc32)cc1

>  <testValue>
1.59

$$$$
>  <testSmiles>
S=c1sc2c(ncn3nc(-c4ccco4)nc23)n1-c1ccc(Cl)cc1

>  <testValue>
0.197

$$$$
>  <testSmiles>
CCCn1c(=S)sc2c1ncn1nc(-c3ccco3)nc21

>  <testValue>
636

$$$$
>  <testSmiles>
C=CCn1c(=S)sc2c1ncn1nc(-c3ccco3)nc21

>  <testValue>
1250

$$$$
>  <testSmiles>
S=c1sc2c(ncn3nc(-c4ccco4)nc23)n1-c1ccccc1I

>  <testValue>
0.571

$$$$
>  <testSmiles>
CCCCn1c(=S)sc2c1ncn1nc(-c3ccco3)nc21

>  <testValue>
1290

$$$$

* * *

Target: Adenosine receptor A2a (Homo sapiens, UniProt P29274)
Sequence (P29274 whole entry): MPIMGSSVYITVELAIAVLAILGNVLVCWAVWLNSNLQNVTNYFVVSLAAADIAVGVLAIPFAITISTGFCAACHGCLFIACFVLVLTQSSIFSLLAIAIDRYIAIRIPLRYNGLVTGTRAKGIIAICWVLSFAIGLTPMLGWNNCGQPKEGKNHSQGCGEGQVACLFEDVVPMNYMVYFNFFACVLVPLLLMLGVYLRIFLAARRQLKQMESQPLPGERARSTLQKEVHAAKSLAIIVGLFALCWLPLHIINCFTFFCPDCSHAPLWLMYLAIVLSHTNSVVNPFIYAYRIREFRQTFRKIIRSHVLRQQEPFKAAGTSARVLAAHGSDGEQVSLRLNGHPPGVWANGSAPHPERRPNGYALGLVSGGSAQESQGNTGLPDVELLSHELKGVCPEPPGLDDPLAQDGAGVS
pKi: −log10 of the molar value.
Outcome label depends on pKi relative to 10: at/above gives Condition met, below gives Condition not met.

>  <testSmiles>
S=c1sc2c(ncn3nc(-c4ccco4)nc23)n1-c1cccc(Cl)c1

>  <assignedClass>
Condition met

$$$$
>  <testSmiles>
CCCn1c(=S)sc2c1ncn1nc(-c3ccco3)nc21

>  <assignedClass>
Condition not met

$$$$
>  <testSmiles>
S=c1sc2c(ncn3nc(-c4ccco4)nc23)n1-c1cccc(I)c1

>  <assignedClass>
Condition met

$$$$
>  <testSmiles>
C=CCn1c(=S)sc2c1ncn1nc(-c3ccco3)nc21

>  <assignedClass>
Condition met

$$$$
>  <testSmiles>
S=c1sc2c(ncn3nc(-c4ccco4)nc23)n1-c1ccc(I)cc1

>  <assignedClass>
Condition not met

$$$$

* * *

Molecular target: Adenosine receptor A2a (Homo sapiens)
Property: Ki; scope: individual molecules

>  <testSmiles>
S=c1sc2c(ncn3nc(-c4ccco4)nc23)n1-c1ccccc1I

>  <targetSystem>
Adenosine receptor A2a (Homo sapiens)

>  <Ki / nM>
0.7

$$$$
>  <testSmiles>
CCn1c(=S)sc2c1ncn1nc(-c3ccco3)nc21

>  <targetSystem>
Adenosine receptor A2a (Homo sapiens)

>  <Ki / nM>
3.56

$$$$
>  <testSmiles>
S=c1sc2c(ncn3nc(-c4ccco4)nc23)n1-c1ccc(Cl)cc1

>  <targetSystem>
Adenosine receptor A2a (Homo sapiens)

>  <Ki / nM>
0.152

$$$$

* * *

Molecular target: Adenosine receptor A1 (Homo sapiens)
Sequence (P30542 whole entry): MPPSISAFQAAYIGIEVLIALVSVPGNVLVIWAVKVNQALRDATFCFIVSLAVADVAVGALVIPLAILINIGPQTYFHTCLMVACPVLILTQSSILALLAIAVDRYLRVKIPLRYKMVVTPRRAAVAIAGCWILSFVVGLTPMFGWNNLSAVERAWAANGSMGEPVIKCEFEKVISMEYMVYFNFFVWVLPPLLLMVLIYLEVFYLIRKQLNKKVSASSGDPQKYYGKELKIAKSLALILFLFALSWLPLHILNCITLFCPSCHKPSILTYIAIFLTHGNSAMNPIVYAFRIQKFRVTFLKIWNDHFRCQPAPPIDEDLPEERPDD

>  <testSmiles>
S=c1sc2c(ncn3nc(-c4ccco4)nc23)n1-c1ccccc1I

>  <Ki [nM]>
0.4

$$$$
>  <testSmiles>
CCCn1c(=S)sc2c1ncn1nc(-c3ccco3)nc21

>  <Ki [nM]>
228

$$$$
>  <testSmiles>
S=c1sc2c(ncn3nc(-c4ccco4)nc23)n1-c1cccc(I)c1

>  <Ki [nM]>
2.62

$$$$
>  <testSmiles>
C=CCn1c(=S)sc2c1ncn1nc(-c3ccco3)nc21

>  <Ki [nM]>
19

$$$$
>  <testSmiles>
S=c1sc2c(ncn3nc(-c4ccco4)nc23)n1-c1ccccc1

>  <Ki [nM]>
48

$$$$
>  <testSmiles>
CCCCn1c(=S)sc2c1ncn1nc(-c3ccco3)nc21

>  <Ki [nM]>
148

$$$$
>  <testSmiles>
CCn1c(=S)sc2c1ncn1nc(-c3ccco3)nc21

>  <Ki [nM]>
0.096

$$$$
>  <testSmiles>
Fc1ccc(-n2c(=S)sc3c2ncn2nc(-c4ccco4)nc32)cc1

>  <Ki [nM]>
3.21

$$$$

Ref: ChEMBL document CHEMBL1156165
